# Target: purified CK2α enzyme (Homo sapiens, UniProt P68400)
# Sequence (P68400 whole entry): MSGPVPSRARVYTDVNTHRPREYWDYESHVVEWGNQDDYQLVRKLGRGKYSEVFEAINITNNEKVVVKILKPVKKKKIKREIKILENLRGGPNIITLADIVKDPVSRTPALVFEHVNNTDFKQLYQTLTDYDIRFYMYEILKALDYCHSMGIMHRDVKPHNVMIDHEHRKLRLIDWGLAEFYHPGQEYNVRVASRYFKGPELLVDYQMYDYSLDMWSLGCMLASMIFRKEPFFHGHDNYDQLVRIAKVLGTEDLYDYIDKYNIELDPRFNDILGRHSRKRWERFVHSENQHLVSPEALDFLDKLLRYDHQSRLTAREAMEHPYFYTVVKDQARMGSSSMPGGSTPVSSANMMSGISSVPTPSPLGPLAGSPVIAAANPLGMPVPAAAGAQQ
pKi: −log10 of the molar value. Counter-ions that a name gives are not always drawn.
Measured endpoint: pKi

molecule="CN(CC(C)(C)N)c1ccc(Nc2cc(NC3CC3)n3ncc(C#N)c3n2)cc1C[S+](C)[O-] (racemic) [Example 67, mono trifluoroacetic acid salt]" reading="> 8.60"
molecule="C[S+]([O-])Cc1cc(Nc2cc(NC3CC3)n3ncc(C#N)c3n2)ccc1C1=CCNC1 (racemic) [Example 62, mono trifluoroacetic acid salt]" reading="8.00 to 8.60"
molecule="CN(CC1(N)CC1)c1ccc(Nc2cc(NC3CC3)n3ncc(C#N)c3n2)cc1C[S+](C)[O-] (racemic) [Example 65, mono trifluoroacetic acid salt]" reading="> 8.60"
molecule="C[S+]([O-])Cc1cc(Nc2cc(NC3CC3)n3ncc(C#N)c3n2)ccc1N1CCCC1 (racemic)" reading="> 8.60"
molecule="CS(=O)(=O)Cc1cc(Nc2cc(NC3CC3)n3ncc(C#N)c3n2)ccc1CCN [Example 11, mono trifluoroacetic acid salt]" reading="> 8.60"
molecule="C[S+]([O-])Cc1cc(Nc2cc(NC3CC3)n3ncc(C#N)c3n2)ccc1OCCN (racemic)" reading="> 8.60"
